- Test Name: Cmax in Sprague-Dawley rat prostate at 10 mg/kg, po administered as single dose by LC-MS/MS analysis
- Format: ADME, organism-based, Prostate gland
- Parameters: dose 10 mg/kg, route oral
Measured Parameter: Cmax (ng/g)
Hi! Could you send only the number? It should be in ng/g, unit omitted.

Prompt: Form field: reported Cmax of c1ccc(N2CCN(CCCN3CCN(c4ccccn4)CC3)CC2)nc1
Completion: 572

---

- Test Name: Clearance in Sprague-Dawley rat serum at 10 mg/kg, iv administered as single dose by LC-MS/MS analysis
- Type: ADME, organism-based
Measured Parameter: clearance
Remember to quote the unit after the number.

Prompt: Query: clearance; subject: c1ccc(N2CCN(CCCN3CCN(c4ccccn4)CC3)CC2)nc1
Completion: 68.3 mL/min/kg
